target_system: T1, murine BACE1 ECD
T1 construct: analyte of the Octet assay (200 nM) and enzyme of the first short substrate assay
T1 sequence (single chain, as listed by the source limits assumed): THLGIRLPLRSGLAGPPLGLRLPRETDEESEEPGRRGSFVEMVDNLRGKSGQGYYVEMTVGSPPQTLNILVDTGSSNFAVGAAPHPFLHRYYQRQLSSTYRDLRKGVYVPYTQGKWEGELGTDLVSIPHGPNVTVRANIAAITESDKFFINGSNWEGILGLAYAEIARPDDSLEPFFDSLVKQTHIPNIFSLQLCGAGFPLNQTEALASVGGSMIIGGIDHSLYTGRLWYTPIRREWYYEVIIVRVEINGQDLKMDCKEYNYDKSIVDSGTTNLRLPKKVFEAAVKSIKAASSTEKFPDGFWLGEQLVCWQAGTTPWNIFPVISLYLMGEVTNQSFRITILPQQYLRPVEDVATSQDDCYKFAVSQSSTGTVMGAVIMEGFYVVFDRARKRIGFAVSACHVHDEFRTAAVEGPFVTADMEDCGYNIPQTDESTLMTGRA
assay_details: Octet, pH 7.5;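 note: antibodies captured on anti-human capture biosensor tips, dissociation followed in PBS with BSA buffer, kinetics fitted with a one-to-one binding model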
parameter: pKd
Remember, pKd is on a log scale: it is -log10 of the molar concentration.

Solved cases (4 shown):
[[record]]
binder = "5891 (antibody, V domains shown, anti-BACE1 IgG) VH: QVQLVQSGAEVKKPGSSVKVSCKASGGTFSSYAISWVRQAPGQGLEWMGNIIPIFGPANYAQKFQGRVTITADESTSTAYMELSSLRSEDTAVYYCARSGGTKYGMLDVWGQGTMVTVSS VL: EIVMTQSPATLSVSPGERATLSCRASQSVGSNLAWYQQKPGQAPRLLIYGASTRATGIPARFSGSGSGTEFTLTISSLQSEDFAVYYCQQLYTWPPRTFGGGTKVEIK"
parameter = "pKd"
observed = 8.85

[[record]]
binder = "5892 (antibody, V domains shown, anti-BACE1 IgG) VH: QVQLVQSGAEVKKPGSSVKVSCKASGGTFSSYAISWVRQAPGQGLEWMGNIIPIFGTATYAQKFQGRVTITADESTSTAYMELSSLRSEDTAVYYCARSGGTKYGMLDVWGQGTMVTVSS VL: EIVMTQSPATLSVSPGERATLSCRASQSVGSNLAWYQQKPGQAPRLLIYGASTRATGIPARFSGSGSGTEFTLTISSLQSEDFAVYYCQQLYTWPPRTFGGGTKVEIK"
parameter = "pKd"
observed = 8.89

[[record]]
binder = "5984 (antibody, V domains shown, anti-BACE1 IgG) VH: QLQLQESGPGLVKPSETLSLTCTVSGGSISSSSYYWGWIRQPPGKGLEWIGNIYYSGSTYYNPSLKGRVTISVDTSKNQFSLKLSSVTAADTAVYYCARLGHGYNYFDLWGRGTLVTVSS VL: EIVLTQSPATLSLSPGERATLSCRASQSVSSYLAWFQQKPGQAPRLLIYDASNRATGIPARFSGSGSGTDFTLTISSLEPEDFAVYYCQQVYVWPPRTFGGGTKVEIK"
parameter = "pKd"
observed = 9.44

[[record]]
binder = "5893 (antibody, V domains shown, anti-BACE1 IgG) VH: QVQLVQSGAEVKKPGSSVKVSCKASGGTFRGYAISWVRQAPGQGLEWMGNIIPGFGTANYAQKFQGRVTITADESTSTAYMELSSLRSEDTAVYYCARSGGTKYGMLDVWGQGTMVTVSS VL: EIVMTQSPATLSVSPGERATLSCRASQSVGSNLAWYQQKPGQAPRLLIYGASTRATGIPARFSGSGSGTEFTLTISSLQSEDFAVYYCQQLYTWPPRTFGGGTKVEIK"
parameter = "pKd"
observed = 9.01


Ask: Which value of pKd has been reported for 5985 (antibody, V domains shown, anti-BACE1 IgG) VH: QLQLQESGPGLVKPSETLSLTCTVSGGSISSSSYYWGWIRQPPGKGLEWIGNIYYSGSTYYNPSLKSRVTISVDTSKNQFSLKLSSVTAADTAVYYCARLGHGYNYFDLWGRGTLVTVSS VL: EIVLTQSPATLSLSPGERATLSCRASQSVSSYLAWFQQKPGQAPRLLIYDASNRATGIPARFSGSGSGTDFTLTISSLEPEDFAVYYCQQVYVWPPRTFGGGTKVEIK in the records?
Result: 9.19
